Recorded Ryegrass, Italian plant response rating, one value per entry.
System: ryegrass, Italian (Italian ryegrass, Lolium multiflorum)
Experiment: Test A preemergence ryegrass, Italian
Assay type: in vivo
Conditions: 500 g ai/ha, 0 to 100 scale, 0 no effect, 100 complete control
I'd appreciate a reply containing only the number, no unit.

Look over these answered cases.
# compound, Ryegrass, Italian plant response rating
measured = [
    ("O=C1NCCC(c2cccc(OC(F)(F)F)c2)C1C(=O)Nc1cccc(F)c1F (racemic)", 70),
    ("O=C1NCCC(c2cccc(C(F)(F)F)c2)C1C(=O)Nc1cccc(F)c1Cl (racemic)", 30),
    ("O=C1NCC[C@@H](c2cccc(C(F)(F)F)c2)[C@@H]1C(=O)Nc1cccc(F)c1F", 0),
]

Please list Ryegrass, Italian plant response rating recorded for the compound O=C1NCCC(c2cccc(C(F)(F)F)c2)C1C(=O)Nc1ccc(F)cc1F (racemic)
0

Annotate the compound O=C1NCCC(c2cccc(C(F)F)c2)C1C(=O)Nc1ccc(F)c(F)c1F (stereo not drawn) with its measured Ryegrass, Italian plant response rating.
40

Tell us which Ryegrass, Italian plant response rating value is on record for O=C1NCC[C@@H](c2ccc(C(F)(F)F)cc2)[C@@H]1C(=O)Nc1ccc(F)c(F)c1F
0

---

System: barnyardgrass (Echinochloa crus-galli)
Assay: Test B flooded paddy test barnyardgrass
Type: in vivo
Conditions: Table B, Flood, 250 g ai/ha, scale 0 to 100
Below is a list of entries, each paired with its recorded Plant response rating value.
In your answer, state the number alone without any accompanying words.

# compound, measured-on, Plant response rating
measured = [
    ("O=C1NCCC(c2ccc(F)c(F)c2)C1C(=O)Nc1ccccc1F (racemic)", "barnyardgrass (Echinochloa crus-galli)", 0),
    ("O=C1NCCC(c2ccc(F)c(F)c2)C1C(=O)Nc1ccccc1C(F)(F)F (racemic)", "barnyardgrass (Echinochloa crus-galli)", 0),
    ("O=C1NCCC(c2cccc(OC(F)(F)F)c2)C1C(=O)Nc1cccc(F)c1F (racemic)", "barnyardgrass (Echinochloa crus-galli)", 65),
    ("O=C1NCCC(c2cccc(C(F)F)c2)C1C(=O)Nc1ccccc1F (centres unmarked)", "barnyardgrass (Echinochloa crus-galli)", 20),
]

# input for lookup
Identify the reported Plant response rating for the following entry. O=C1NCCC(c2ccccc2)C1C(=O)Nc1ccccc1F (racemic)
0

---

# Plant response rating, Wheat annotations
System: wheat (Triticum aestivum)
Test: Test A postemergence wheat
Assay type: in vivo
Conditions: 500 g ai/ha, 0 to 100 scale, 0 is no effect, 100 is complete control

# molecule, Plant response rating, Wheat
data = [
    ("Cc1c(F)cccc1NC(=O)C1C(=O)NCCC1c1cccc(C(F)(F)F)c1 (racemic) [Compound 26]", 20),
    ("O=C1NCCC(c2cccc(C(F)(F)F)c2)C1C(=O)Nc1ccc(F)c(F)c1F (racemic) [Compound 28]", 20),
    ("O=C1NCCC(c2ccccc2)C1C(=O)Nc1ccccc1C(F)(F)F (racemic) [Compound 2]", 0),
    ("O=C1NCCC(c2ccccc2C(F)(F)F)C1C(=O)Nc1ccccc1C(F)(F)F (racemic) [Compound 7]", 0),
    ("O=C1NCCC(c2cccc(C(F)(F)F)c2)C1C(=O)Nc1cccc(Cl)c1Cl (racemic) [Compound 31]", 0),
]

Identify measured Plant response rating, Wheat corresponding to O=C(Nc1ccccc1C(F)(F)F)C1C(=O)N(C2CC2)CCC1c1ccc(F)cc1 (stereo not shown) [Compound 50]
0

Annotate the molecule O=C1NCCC(c2cccc(OC(F)F)c2)C1C(=O)Nc1cccc(F)c1F (racemic) [Compound 46] with its measured Plant response rating, Wheat.
50
